Provenance of the data: patent US20180334496A1

# key: entry, value: Kd
- experimental.system: T1, recombinant human CFD mutant 1 (R157A, R207A), His-tagged (human, UniProt P00746 26-253)
- T1 construct: positions are linear positions in the mature protein; also called rhCFD-mut1-His; Mut1
- T1 sequence (P00746 26-253 R182A/R232A limits assumed): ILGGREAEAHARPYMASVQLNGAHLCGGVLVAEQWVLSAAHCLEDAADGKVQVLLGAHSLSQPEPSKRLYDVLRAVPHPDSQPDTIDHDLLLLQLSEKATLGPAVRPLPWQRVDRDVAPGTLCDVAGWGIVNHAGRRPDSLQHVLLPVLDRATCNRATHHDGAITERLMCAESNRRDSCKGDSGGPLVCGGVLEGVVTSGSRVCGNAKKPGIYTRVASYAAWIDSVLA
- experimental.details: SPR MX96
Numbers only; they are read as nM.

Examples with answers:
binder	measurement.name	reported.result
KCD013 (antibody, V domains shown) VH: EVQLQQSGAELVKPGASVKLSCTASGFKIKDTYMHWVKERPDQGLEWIGRIDPANGNTKYDPKFQGKATITADTSSNTAYLQLSSLTSEDTAVYYCANAMDYWGQGTSVTVSS VL: QIILTQSPAIMSASPGEKVTMTCSASSSVSNMYWYQQKPGSSPRLLIYDTSNLASGVPVRFSGSGSGASYSLTISRMEAEDAATYYCQQWSSYPWTFGGGTKLEIK	Kd	19
KCD230 (antibody, V domains shown) VH: QVQLQQPGTELVKPGASVKLPCKASGYTFTSYWMQWVKQRPGQGLEWIGEIDPSDTYINYNQKFKGKATLTVDTSSTTAYMQLSSLTSEDSAVYYCARYTTIMASDYWGQGTTLTVSS VL: DIQMTQTTSSLSVSLGDRVTISCRASQDITNYLNWYQQKPDGTVKLLIYFTSRLHSGVPSRFSGSGSGTDYSLTISNLEPEDIATYYCQQYSKLPWTFGGGTKLEIK	Kd	0.88

Record summary for KCD058 (antibody, V domains shown) VH: EVKLVESGGDLVQPGGSLKLSCAASGFTFSRYIMSWVRLTPEKRLEWVAFITNGGGNTYHPDTVKGRFTISRDNANNTLYLQMSSLKSEDTAIYYCARHDYYALDYWGQGTSVTVSS VL: DIQMTQSPSSLSASLGGKVTITCKASQDINKYIAWYQHKPGKGPRLLIHYTSTLQPGIPSRFSGSGSGRDYSFSISNLEPEDIATYYCLQYDNLLYTFGGGTKLEIK : reported Kd = 7.6
